# pKi per entry for Neurotensin receptor type 2 (Mus musculus)
Square brackets hold non-standard residues; d marks the D form. Peptide text beside a SMILES is read from it. NMeR = CN[C@@H](CCCNC(=N)N)C(=O)O; Tle = CC(C)(C)[C@H](N)C(=O)O
Scale explanation: pKi corresponds to minus log10 of a concentration expressed in moles per litre.

1) CN[C@@H](CCCNC(=N)N)C(=O)N[C@@H](CCCCN)C(=O)N1CCC[C@H]1C(=O)N[C@@H](Cc1c[nH]c2ccccc12)C(=O)N[C@H](C(=O)N[C@@H](CC(C)C)C(=O)O)C(C)(C)C (H-[NMeR]KPW[Tle]L-OH)	8.42

The record that follows has no pKi shown yet.
**Query** Supply pKi measured with Neurotensin receptor type 2 (Mus musculus) for CC1CN(C2CCC(C#N)(c3ccc(F)cc3)CC2)CCC1(C(=O)O)c1ccccc1 (configuration not stated) [NSC_54385] .
Sequence (P70310 whole entry): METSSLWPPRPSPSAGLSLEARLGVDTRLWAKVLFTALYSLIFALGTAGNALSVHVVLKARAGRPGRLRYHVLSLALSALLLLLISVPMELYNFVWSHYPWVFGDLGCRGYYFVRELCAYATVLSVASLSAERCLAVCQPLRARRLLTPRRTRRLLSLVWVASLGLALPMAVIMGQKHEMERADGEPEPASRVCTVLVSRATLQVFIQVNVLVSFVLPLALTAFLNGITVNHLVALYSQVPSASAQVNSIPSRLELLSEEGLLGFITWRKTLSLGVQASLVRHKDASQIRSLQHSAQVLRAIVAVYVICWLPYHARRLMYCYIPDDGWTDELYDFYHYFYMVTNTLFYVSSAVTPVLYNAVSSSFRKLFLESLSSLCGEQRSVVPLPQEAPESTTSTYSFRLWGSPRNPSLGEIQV
**Result** 7.77

* * *

target.under.test: Neurotensin receptor type 2 (Mus musculus)
quantity.measured: pKi
Scale explanation: pKi corresponds to minus log10 of a concentration expressed in moles per litre.

**Query** Supply pKi measured with Neurotensin receptor type 2 (Mus musculus) for H-KNPYIL-OH [NSC_128644] .
**Result** 8.15

* * *

target.under.test: Neurotensin receptor type 1 (Mus musculus)
Sequence (O88319 whole entry): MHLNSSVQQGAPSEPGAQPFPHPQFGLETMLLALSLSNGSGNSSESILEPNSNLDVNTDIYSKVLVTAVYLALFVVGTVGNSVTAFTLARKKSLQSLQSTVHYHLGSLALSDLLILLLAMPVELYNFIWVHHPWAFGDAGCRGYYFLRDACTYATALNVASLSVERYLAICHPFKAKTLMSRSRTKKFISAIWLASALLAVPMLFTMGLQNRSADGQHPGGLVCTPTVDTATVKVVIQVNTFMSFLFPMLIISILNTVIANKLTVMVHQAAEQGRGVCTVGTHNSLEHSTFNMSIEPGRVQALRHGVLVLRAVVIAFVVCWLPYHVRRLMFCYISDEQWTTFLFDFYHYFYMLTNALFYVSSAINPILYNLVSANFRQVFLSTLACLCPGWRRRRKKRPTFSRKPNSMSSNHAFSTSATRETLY
quantity.measured: pKi
Scale explanation: pKi corresponds to minus log10 of a concentration expressed in moles per litre.

**Query** Tell me measured pKi for H-KNPYIL-OH [NSC_128644] please.
**Result** 9.60

Taken from BindingDB's records for doi:10.1124/jpet.300.1.305.
